- System: Leishmania mexicana
- TEST_METHOD_NOTES: Tested for inhibition of growth Leishmania mexicana in a pathogen cell culture assay
- Format: functional
- MEASUREMENT_SETUP: read-out: ED50 (the source's name)
pEC50: −log10 of the molar value.
As shown below, each of these compounds has a reported pEC50 value.
METRIC: pEC50

- SMILES_INPUT: "CN(C)CCCOc1ccc(-c2ccccc2)cc1"
  METRIC: "pEC50"
  NUMERIC_READOUT: 6.40
- SMILES_INPUT: "CN(C)CCCOc1ccc(C(=O)c2ccc(Cl)cc2)cc1"
  METRIC: "pEC50"
  NUMERIC_READOUT: 6.40
- SMILES_INPUT: "CCN(CC)CCOc1ccc(-c2ccccc2)cc1"
  METRIC: "pEC50"
  NUMERIC_READOUT: 5.00
- SMILES_INPUT: "O=C(c1ccc(Cl)cc1)c1ccc(OCCN2CCN(CCO)CC2)cc1"
  METRIC: "pEC50"
  NUMERIC_READOUT: 6.40
- SMILES_INPUT: "OCCN1CCN(CCOc2ccc(-c3ccccc3)cc2)CC1"
  METRIC: "pEC50"
  NUMERIC_READOUT: 6.40

Entry source: ChEMBL document CHEMBL1145110
